Data provenance is PubChem BioAssay AID504411.

- system-tested: Diacylglycerol lipase-beta (Homo sapiens) (UniProt Q8NCG7)
- Sequence (Q8NCG7 whole entry, looked up): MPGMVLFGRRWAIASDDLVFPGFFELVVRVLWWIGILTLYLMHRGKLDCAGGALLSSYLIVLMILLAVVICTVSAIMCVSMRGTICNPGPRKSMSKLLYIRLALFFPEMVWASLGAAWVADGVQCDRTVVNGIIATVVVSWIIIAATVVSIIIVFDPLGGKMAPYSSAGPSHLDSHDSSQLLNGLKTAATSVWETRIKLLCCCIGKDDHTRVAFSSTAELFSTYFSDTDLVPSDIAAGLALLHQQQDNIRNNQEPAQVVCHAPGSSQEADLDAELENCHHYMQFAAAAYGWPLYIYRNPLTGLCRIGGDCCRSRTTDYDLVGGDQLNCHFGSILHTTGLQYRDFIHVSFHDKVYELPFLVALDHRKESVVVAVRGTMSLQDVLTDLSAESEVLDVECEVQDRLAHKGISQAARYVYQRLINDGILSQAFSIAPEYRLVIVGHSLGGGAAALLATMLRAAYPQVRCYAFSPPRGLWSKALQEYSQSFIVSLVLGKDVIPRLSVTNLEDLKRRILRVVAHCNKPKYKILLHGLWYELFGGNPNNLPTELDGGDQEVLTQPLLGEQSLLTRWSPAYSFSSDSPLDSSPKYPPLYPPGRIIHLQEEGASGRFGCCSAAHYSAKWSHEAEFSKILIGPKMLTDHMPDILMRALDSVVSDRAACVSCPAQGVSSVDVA
- assay-text: inhibition of human DAGLB hydrolase activity – biochemical, fluorescence, HTS, primary screen (AID 504411);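 note: 0% = enzyme with vehicle and 100% = wells lacking enzyme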
- test-settings: HEK293T DAGLB membrane lysate, EnzChek fluorogenic substrate; at 5.17 µM
About 200 (0.059%) of roughly 340,000 compounds were called active. Cut-off read from the data, not from the text of the source: active = inhibition above about 34%; inactive = the rest. The sample holds actives, similar compounds and a random draw of the others, so the mix is not that of the screen.
Classes to choose from: active, inactive

These solved cases illustrate the format of a correct answer.
Cc1ccc(-c2nn(C(C)(C)C)c3ncnc(N)c23)cc1 = inactive
COc1ccc(/C=C/CN2CCN(Cc3ccc(C)cc3)C(CCO)C2)cc1 (stereo unspecified) = inactive
COC(=O)c1cccc(NS(C)(=O)=O)c1 = inactive

[Q] Recorded test outcome, item "O=c1[nH]c2c(c(=O)n1-c1ccccc1)CCO2"
[A] inactive

[Q] Recorded test outcome, item "O=S1(=O)CCO[C@H]2Cc3ccccc3[C@H]2N1Cc1ccccc1"
[A] inactive

[Q] Recorded test outcome, item "COc1cccc(/C=C2\SC(=S)N(CCCC(=O)N3CCOCC3)C2=O)c1"
[A] inactive

[Q] Recorded test outcome, item COc1ccc(C(=O)CN2C(=O)NC3(CCc4ccccc43)C2=O)c(OC)c1 (stereo unspecified)
[A] inactive

[Q] Recorded test outcome, item "CCOC(=O)C1=NN(c2ccc(Cl)cc2)/C(=C/C2=NCCc3cc(OC)c(OC)cc32)S1"
[A] inactive

[Q] Recorded test outcome, item Cc1nn(-c2ncccn2)c2c1C(=O)CC(C)(C)C2Br (stereo unspecified)
[A] inactive

[Q] Recorded test outcome, item "CCN1CCN(CC(=O)c2cc(OC)c(OC)c(OC)c2)CC1"
[A] inactive

[Q] Recorded test outcome, item "CCc1cc(C(=O)N(CC)CC(=O)Nc2c(F)cccc2F)sc1C"
[A] inactive

[Q] Recorded test outcome, item CC1Cc2ccccc2N1C(=O)c1cc2sccc2n1Cc1ccccc1 (stereo unspecified)
[A] inactive

====

inhibition listing for selected compounds.
- system-tested: Diacylglycerol lipase-beta (Homo sapiens)
- assay-text: inhibition of human DAGLB hydrolase activity – biochemical, fluorescence, HTS, primary screen (AID 504411);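 note: 0% = enzyme with vehicle and 100% = wells lacking enzyme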
- test-settings: HEK293T DAGLB membrane lysate, EnzChek fluorogenic substrate; at 5.17 µM; hits give high values
Out of some 340,000 compounds screened, about 200 (0.059%) were called active. Only a selection was taken, and actives are over-represented in it overall.
// units = %; emit number, no label

Use these answered entries as a reference point.
CCOC(=O)CN(C(=O)COc1nc(-c2ccccc2)cc(C)c1C#N)c1ccc(F)cc1 = -4.62
Cc1cc(=O)n2nc(N3CCCC(C(=O)NCc4cccc(Cl)c4)C3)sc2n1 (stereo unspecified) = -0.02
CC(=O)N1CCc2ccc(N)cc21 = -0.55
O=C(CCCN=C1NS(=O)(=O)c2ccccc21)OCC(=O)c1ccc(F)c(F)c1 = 1.93
O=C(N[C@@H]1C/C=C\C[C@@H](CC(=O)N(CCO)Cc2ccccc2)C(=O)N[C@H](Cc2ccccc2)COC1=O)OCC1c2ccccc2-c2ccccc21 = -1.54

// moving on: another record for inhibition
[Q] Write down inhibition measured for item "O=C(O)CCCCCCCCc1cn(CN2C(=O)c3ccccc3C2=O)nn1"
[A] 1.19

====

- system-tested: Diacylglycerol lipase-beta (Homo sapiens)
- assay-text: inhibition of human DAGLB hydrolase activity – biochemical, fluorescence, HTS, primary screen (AID 504411);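 note: 0% = enzyme with vehicle and 100% = wells lacking enzyme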
- test-settings: HEK293T DAGLB membrane lysate, EnzChek fluorogenic substrate; at 5.17 µM; hits give high values
Among all 340,000 compounds or so, about 200 (0.059%) were called active. The entries come from a sample that favours actives as a whole.
inhibition listing for selected compounds.
// units = %; emit number, no label

Use these answered entries as a reference point.
Cc1ccc(OC(=O)c2c(C)nn(-c3ccccc3)c2C)cc1 = -9.87
COc1ccc(S(=O)(=O)N/N=C\c2ccc(OC)c(COc3ccc(C)cc3[N+](=O)[O-])c2)cc1 = -2.91
CSC1=N/C(=C\C=C\c2cccs2)C(=O)S1 = 6.62
O=C(Nc1cccc(Cl)c1)C1CCCN(c2cnccn2)C1 (centres undefined) = -0.35
C=CCNC(=S)N1CCN(CCN=Cc2c(C)[nH]n(-c3ccc([N+](=O)[O-])cc3)c2=O)CC1 = 1.77
CN(c1ccc(OCC(=O)OCC(=O)Nc2cccc([N+](=O)[O-])c2)cc1)S(=O)(=O)c1ccc(F)cc1 = -2.67
CCN(CC(=O)NCCCN1CCOCC1)S(=O)(=O)c1cc(Cl)ccc1Cl = 3.54
O=c1c2ccccc2nc2n1C(CSCc1cccc(C(F)(F)F)c1)CS2 (centres undefined) = -3.32

[Q] Write down inhibition measured for item "COc1ccc(NC(=O)C[C@H]2C(=O)N(CCc3ccccc3)C[C@@H]2C)cc1"
[A] -3.33

[Q] Write down inhibition measured for item CC(Sc1nncn1C)C(=O)Nc1cc(C(F)(F)F)ccc1N1CCOCC1 (centres undefined)
[A] 0.9
